tested_on: T1, recombinant human CD123-Fc (human, UniProt P26951 19-305)
T1 construct: not shown: Fc part of CD123-Fc
T1 sequence: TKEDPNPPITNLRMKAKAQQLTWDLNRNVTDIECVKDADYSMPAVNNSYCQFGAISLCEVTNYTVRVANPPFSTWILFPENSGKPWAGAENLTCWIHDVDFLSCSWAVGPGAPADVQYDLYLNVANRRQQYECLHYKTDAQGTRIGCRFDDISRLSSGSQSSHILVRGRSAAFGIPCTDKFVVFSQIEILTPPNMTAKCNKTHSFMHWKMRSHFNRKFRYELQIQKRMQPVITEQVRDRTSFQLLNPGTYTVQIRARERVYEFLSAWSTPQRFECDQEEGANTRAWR
experiment_summary: phage ELISA, captured CD123-Fc
Listed here: items and their measured ELISA_avg.
parameter: ELISA_avg (ratio A450 target/IgG1-Fc)

>>> recorded_measurement("SEQ ID NO: 378 (designed binder, D domain, on phage) MGSWVEFVDRLWAIDERLDALGGSEAELAAFEKEIAAFESELQAYKGKGNPEVEFLRTWAAWIREDLQAYRHN")
3.2
>>> recorded_measurement("SEQ ID NO: 384 (designed binder, D domain, on phage) MGSWDEFEERLFAIDERLWALGGSEAELAAFEKEIAAFESELQAYKGKGNPEVEALRYLAADIREELQAYRHN")
5
>>> recorded_measurement("SEQ ID NO: 316 (designed binder, D domain, on phage) MGSWTEFHDRLEAIDDRLWALGGSEAELAAFEKEIAAFESELQAYKGKGNPEVEYLREEAAQIRWELQAYRHN")
5.8
